Exercise: state measured IC50 for each of the compounds provided.
molecular target: GST-tagged ROR gamma ligand binding domain (LBD) (Homo sapiens, UniProt P51449)
Sequence (P51449 269-508 limits assumed): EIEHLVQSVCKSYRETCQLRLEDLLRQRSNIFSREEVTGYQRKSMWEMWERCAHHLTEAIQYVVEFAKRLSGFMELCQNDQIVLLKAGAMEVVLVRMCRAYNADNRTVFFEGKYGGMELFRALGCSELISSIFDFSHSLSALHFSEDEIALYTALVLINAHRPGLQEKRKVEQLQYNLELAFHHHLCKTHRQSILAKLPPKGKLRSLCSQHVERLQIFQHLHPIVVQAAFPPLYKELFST

Worked cases, answers included:
• CCS(=O)(=O)c1ccc(CC(=O)Nc2ccc(C#CC(C)(C)Oc3ccc(Cl)cc3Cl)cc2)cc1 = < 50 nM
• CCS(=O)(=O)c1ccc(CC(=O)Nc2ccc(OC3(c4ccc(F)cc4F)CCCCC3)c(F)c2)cc1 = < 50 nM
• CCn1c(C(C)(C)Oc2ccc(NC(=O)Cc3ccc(S(=O)(=O)CC)cc3)cc2)nc2ccc(F)cc21 = < 50 nM
• CCS(=O)(=O)c1ccc(CC(=O)Nc2ccc(OC(C)(C)c3ccc(F)cc3Cl)c(F)c2)cc1 = < 50 nM
• CCS(=O)(=O)c1ccc(CC(=O)Nc2ccc(OC(C)(C)c3ccc(Cl)cc3Cl)nc2)cc1 = < 50 nM

For each of the compounds below, state IC50.
1. CCS(=O)(=O)c1ccc(CC(=O)Nc2ccc(OC(C)(C)c3ccc(C(F)(F)F)cc3)cc2)cc1
2. CCS(=O)(=O)c1ccc(CC(=O)Nc2ccc(OC3(c4ccc(Cl)cc4Cl)CCCCC3)c(F)c2)cc1
3. CCS(=O)(=O)c1ccc(CC(=O)Nc2ccc(OC(C)(C)c3ccc(Cl)c(Cl)c3)nc2)cc1

# output
1. < 50 nM
2. 50 to 100 nM
3. < 50 nM
